# experiment-notes: Cytotoxicity in 293 cells expressing ΔK280 tauRD-DsRed fusion protein
# Assay type: cell-based
# recorded-conditions: human, ΔK280 tauRD-DsRed 293 cells
measured-attribute: IC50 at 80 h

>>> observed_result("Nc1c(/N=N/c2ccc(-c3ccc(/N=N/c4cc(S(=O)(=O)O)c5ccccc5c4N)cc3)cc2)cc(S(=O)(=O)O)c2ccccc12")
"60 µM"
>>> observed_result("CCOC(=O)[C@@H]1OC(O)[C@H](C)[C@@H](c2cccs2)[C@@H]1[N+](=O)[O-] (stereo partly shown)")
"42 µM"
>>> observed_result("CCOC(=O)[C@@H]1OC(O)[C@H](C)[C@@H](c2ccccc2)[C@@H]1[N+](=O)[O-] (stereo partly shown)")
"42 µM"

Would you kindly look at the next entry?
## Input Query (molecule): CCOC(=O)[C@@H]1OC(O)[C@H](C)[C@@H](c2ccc(OC)cc2)[C@@H]1[N+](=O)[O-] (stereo partly shown) ; field requested: IC50 at 80 h
## Output 32 µM
